Recorded measurements of abundance fitness, one per entry
B1: Zinc finger homeobox protein 4, residues 2086 to 2141; numbered along this chain, Q86UP3 (parent)
chain: RPRTRITDDQLKILRAYFDINNSPSEEQIQEMAEKSGLSQKVIKHWFRNTLFKERQ

# Variants of: B1
# Test summary: abundance fitness (aPCA) (normalised: wild type 0, dead -1); higher = more abundant; growth selection in yeast, the domain comes from the species named
# Setup conditions: Homo sapiens
Reply: number alone, nothing else.

RPRTRITDDQLKILRAYFDINNSPSEEQIQEMAEKSGLSQKRIKHWFRNTLFKERQ [V42R]
0.086
RPRTRITDDQLKILRAYFDINNSPSEEDIQEMAEKSGLSQKVIKHWFRNTLFKERQ [Q28D]
-0.12
RPRTRITDDQLKILRAYFDINNQPSEEQIQEMAEKSGLSQKVIKHWFRNTLFKERQ [S23Q]
-0.011
RPRTRITDDQLKILRAYFDINNSPSEEQIAEMAEKSGLSQKVIKHWFRNTLFKERQ [Q30A]
-0.019
RPRTRITDDQLKILRAYFDINNSPSEEQIQEMAEKSGLSQKVIKHKFRNTLFKERQ [W46K]
-0.737
RPRTRITDDQLKILRAYFDINNSPSEEQIQEMASKSGLSQKVIKHWFRNTLFKERQ [E34S]
-0.162
RPRTRITDDQLKILRAYFDINNSPSEEQIQEMAEKSGLSQKVIKHWKRNTLFKERQ [F47K]
-0.558
RPRTRITDDQLKILRAYFDIENSPSEEQIQEMAEKSGLSQKVIKHWFRNTLFKERQ [N21E]
0.122

Entry RPRTRITDDQLKILRAYFDTNNSPSEEQIQEMAEKSGLSQKVIKHWFRNTLFKERQ [I20T] , abundance fitness reported as 0.077

Entry RPRTRITDDQLKILRAYFDINNSPSEEQIQEMAEKSGLSQVVIKHWFRNTLFKERQ [K41V] , abundance fitness reported as -0.124

Entry RPRTRITDDQLKILRAYFDINNSHSEEQIQEMAEKSGLSQKVIKHWFRNTLFKERQ [P24H] , abundance fitness reported as -0.427

Entry RPRTRITDDQLKILRAYFDINNSPSEEQIQEMAEKSGLSQNVIKHWFRNTLFKERQ [K41N] , abundance fitness reported as -0.393

Entry RPRTRITDDQLKILRAYFDINNSPSREQIQEMAEKSGLSQKVIKHWFRNTLFKERQ [E26R] , abundance fitness reported as 0.021

Entry RPRTRITDDQLKILRAYFDINNSPSEEQIQEMANKSGLSQKVIKHWFRNTLFKERQ [E34N] , abundance fitness reported as -0.136

Entry RPRTRITDDQLKILRAYFDINNSPSEEQIQEHAEKSGLSQKVIKHWFRNTLFKERQ [M32H] , abundance fitness reported as -0.686

Entry RPRTRITDDQLKILRAYFDINNSPSEEQIQEMTEKSGLSQKVIKHWFRNTLFKERQ [A33T] , abundance fitness reported as 0.029

Entry RPRTRITDDQLKILRAYFIINNSPSEEQIQEMAEKSGLSQKVIKHWFRNTLFKERQ [D19I] , abundance fitness reported as -0.061

Entry RPRTRITDDQLKILRAYFDINNSPSEEQIQEMAEKSGLSQKVNKHWFRNTLFKERQ [I43N] , abundance fitness reported as -1.02

Entry RPRTRITDDQLKILRAYFDINNSPSEEQIQEMAEKSGLSQKVIKHWFRNTLFKEVQ [R55V] , abundance fitness reported as -0.204

Entry RPRTRITDDQLKILRAYFDINNSPSEEQIQEMAEKSGLSQKVISHWFRNTLFKERQ [K44S] , abundance fitness reported as -0.069

Entry RPRTRITDDQLKILRAYFDINNSPSEEQIQEMAEKSGLSQKVIKHWFRNTLFKERW [Q56W] , abundance fitness reported as -0.492

Entry RPRTRITDDQLKILRAYFDENNSPSEEQIQEMAEKSGLSQKVIKHWFRNTLFKERQ [I20E] , abundance fitness reported as 0.015

Entry RPRTRITDDQLKILRAYFDINNSPSEEQIQEMAEKSGQSQKVIKHWFRNTLFKERQ [L38Q] , abundance fitness reported as -0.349

Entry RPRTRITDDQLKILRAYFDINNSPSEEQIQEMAEKSGLSQKVIKHWFRNTLFLERQ [K53L] , abundance fitness reported as 0.06

Entry RPRTRITDDQLKILRAYFDINNSPSEEQIQEMAEKSGLSQKAIKHWFRNTLFKERQ [V42A] , abundance fitness reported as 0.012

Entry RPRTRITDDQLKILRAYFDINNSPSEEQIQEMAEKSGLSQKVIKHIFRNTLFKERQ [W46I] , abundance fitness reported as -0.331
